- Assay type: physicochemical
- conditions used: ^177Lu-A prepared and stored in presence of stabilizer 3.33 mg/mL, room temperature, 72 h
Structures can show the parent of a compound that is named as a salt.
observable: RCP (%) t = 72 h

{"columns": ["compound", "recorded result"],
 "data": [
  ["Oc1nc2ccccc2s1 [2-Hydroxybenzothiazole]", 9.6],
  ["Cc1ncc(C[n+]2csc(CCO)c2C)c(N)n1 [Thiamine hydrochloride, reference compound]", 0],
  ["O=C(O)/C=C/c1cccc(O)c1 [3-Hydroxycinnamic acid]", 0],
  ["N[C@@H](CCC(=O)N[C@@H](CS)C(=O)NCC(=O)O)C(=O)O", 0],
  ["Cc1c(O)c(=O)n(-c2ccccc2)n1C [4-Hydroxyantipyrine]", 0]
]}

(A) CC(=O)Oc1ccccc1C(=O)O [Acetylsalicylic acid, Acetylsalicyclic acid, reference compound]
(B) c1ccc2nsnc2c1
Req: Which item exceeds the other in RCP (%) t = 72 h, A or B ? Use the label to indicate which entry you chose.
Resp: B
(B: 3.1%, A: 0%)

====

- Assay type: physicochemical
- conditions used: ^177Lu-A (3.55 mCi avg) prepared in presence of 5 mg/mL stabilizer, HPLC Method 1, t = 0 h
Counter-ions that a name gives are not always drawn.
observable: Replicate 1 RCP % t = 0 h (%)

// worked examples, Replicate 1 RCP % t = 0 h included
{"columns": ["molecule", "measurement units", "Replicate 1 RCP % t = 0 h"],
 "data": [
  ["O=C1O[C@H]([C@@H](O)CO)C([O-])=C1O.[Na+] [Ascorbic acid, Sodium L-ascorbate (Ascorbic acid)]", "%", 87.6],
  ["N[C@@H](CS)C(=O)O [L-cysteine, L-cysteine hydrochloride monohydrate]", "%", 93.3],
  ["O=C([O-])c1cc(O)ccc1O.[Na+]", "%", 93.9]
]}

(a) CSCC[C@@H](N)C(=O)O
(b) C[Se]CC[C@H](N)C(=O)O
Req: Hi there, can you help? I need to know whether a or b has lower measured Replicate 1 RCP % t = 0 h. Identify your pick by its label.
Resp: b

====

- Assay type: physicochemical
- conditions used: ^177Lu-A (4.37 mCi avg) prepared in presence of 5 mg/mL stabilizer, HPLC Method 2, t = 0 h
Where a name gives a salt, the structure may show the parent alone.
observable: Replicate 2 RCP % t = 0 h (%)

Recorded Replicate 2 RCP % t = 0 h, per entry:
{"columns": ["compound", "Replicate 2 RCP % t = 0 h [%]"],
 "data": [
  ["CSCC[C@@H](N)C(=O)O", 97.6],
  ["C[Se]CC[C@H](N)C(=O)O", 60.6],
  ["O=C([O-])c1cc(O)ccc1O.[Na+]", 96.6]
]}

(A) N[C@@H](CS)C(=O)O [L-cysteine, L-cysteine hydrochloride monohydrate]
(B) O=C1O[C@H]([C@@H](O)CO)C([O-])=C1O.[Na+] [Ascorbic acid, Sodium L-ascorbate (Ascorbic acid)]
Req: Could you please tell me which of these two has the higher Replicate 2 RCP % t = 0 h: A or B ? When you have decided, please share the label of that item.
Resp: A

====

- Type: physicochemical
- conditions used: ^177Lu-A (3.6 mCi) prepared in presence of 2.5 mg/mL stabilizer, 24 h frozen
Structures can show the parent of a compound that is named as a salt.
observable: RCP % t = 24 h (frozen) (%)

{"columns": ["compound", "recorded result"],
 "data": [
  ["C[Se]CC[C@H](N)C(=O)O", 94.7]
]}

(A) CSCC[C@@H](N)C(=O)O
(B) N[C@@H](CS)C(=O)O [L-cysteine, L-cysteine hydrochloride monohydrate]
Req: Please indicate which has the smaller reported RCP % t = 24 h (frozen): A , or B . Lab log: write the label of the selected item as the result.
Resp: B
